FYI, the data here is from patent US20220370416A1.

assay-target: HiBit-KRAS^G12C (Homo sapiens, UniProt P01116, G12C)
Sequence (P01116 1-186 isoform P01116-2 G12C limits assumed): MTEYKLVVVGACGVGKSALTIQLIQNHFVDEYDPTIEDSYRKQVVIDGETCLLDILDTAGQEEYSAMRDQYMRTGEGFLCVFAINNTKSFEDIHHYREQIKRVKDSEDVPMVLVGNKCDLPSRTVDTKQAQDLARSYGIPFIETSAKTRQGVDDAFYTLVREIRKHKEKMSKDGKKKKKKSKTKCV
assay-name: HiBit degradation assay in MiaPaCa-2 HiBit-KRas^G12C cells
Type: cell-based
run-parameters: read-out: KRas^G12C-HiBiT (MiaPaCa; 0.5% DMSO) IC50; MiaPaCa-2 HiBit-KRas^G12C cells; 0.5% DMSO; 24 hours
Experimental: Reagents. SW1573 (CRL-2170) and MiaPaCa-2 (CRL-1420) cells were purchased from ATCC. Both cell lines are […] for the G12C mutation in KRAS. […] Either SW1573 HiBit-KRas^G12C or MiaPaCa-2 HiBit-KRas^G12C cells were plated at 9000 cells/well in a 384 well plate (Corning #3770). […] Plates were then allowed to equilibrate to room temperature and fluorescence was measured using a Perkin-Elmer EnVision. […]
test-readout: DC50

C=C(F)C(=O)N1CCN(c2nc(OCCN3CCC(COc4cc([C@H](C(=O)N5C[C@H](O)C[C@H]5C(=O)N[C@@H](C)c5ccc(-c6scnc6C)cc5)C(C)C)on4)CC3)nc3c(F)c(-c4cc(O)cc5ccccc45)c(Cl)cc23)C[C@@H]1CC#N [Compound 168] ... 100 to 1000 nM
C=CC(=O)N1CCN(c2nc(OCCN3CCC(COc4cc([C@H](C(=O)N5C[C@H](O)C[C@H]5C(=O)N[C@@H](C)c5ccc(-c6ccnn6C)cc5)C(C)C)on4)CC3)nc3c(F)c(-c4cc(O)cc5ccccc45)c(Cl)cc23)C[C@@H]1CC#N (atropisomer, axis not shown) [Compound 138] ... 100 to 1000 nM
C=CC(=O)N1CCN(c2nc(OCCN3CCC(COc4cc([C@H](C(=O)N5C[C@H](O)C[C@H]5C(=O)N[C@@H](C)c5ccc(-c6ccnn6C)cc5)C(C)C)on4)CC3)nc3c(F)c(-c4cc(O)cc5ccccc45)c(Cl)cc23)C[C@@H]1CC#N [Compound 157] ... 100 to 1000 nM

Attention now turns to another entry.
## Task For HiBit-KRAS^G12C (Homo sapiens, UniProt P01116, G12C), provide DC50 of Cc1ncsc1-c1ccc([C@H](C)NC(=O)[C@@H]2C[C@@H](O)CN2C(=O)[C@@H](NC(=O)COCC2CCN(CCOc3nc(N4CCN(C(=O)/C=C/CN5CCOCC5)[C@@H](CC#N)C4)c4cc(Cl)c(-c5cc(O)cc6ccccc56)c(F)c4n3)CC2)C(C)(C)C)cc1 [Compound 164] please.
## Result > 1000 nM
